Tested on: Tov-21-G
Experiment: Confirmatory qHTS for gynecologic anti-cancer compounds from libraries of approved drugs and bioactive compounds; further: nearly all actives have a fitted effect of over 55% in size
Conditions: gynecologic cancer cell panel viability, ATPlite luminescence, 48 h; series mostly up to 57.7 µM
Results filed as inconclusive are left out. The source made the active and inactive calls. The call rests on the fitted dose curve; in most records, active means well fitted cell-killing curve with a large enough effect; inconclusive means small, poorly fitted or top-dose-only effect, or effect the other way; inactive means no such curve, though single readings can be large or run the other way.
Response enum: active, inactive

Examples with answers:
C[C@]12CCC(=O)C=C1CC[C@@H]1[C@@H]2[C@@H](O)C[C@@]2(C)[C@H]1CC[C@]2(O)C(=O)CO: inactive
CC1(C)[C@@H](O)CC[C@]2(C)[C@H]3C(=O)C=C4[C@@H]5C[C@@](C)(C(=O)O)CC[C@]5(C)CC[C@@]4(C)[C@]3(C)CC[C@@H]12: inactive
CN1CCN(Cc2ccc(NC(=O)Nc3ccc(Oc4cc(NC(=O)C5CC5)ncn4)cc3)cc2C(F)(F)F)CC1: active
CC[C@]1(O)C[C@H]2CN(CCc3c([nH]c4ccccc34)[C@@](C(=O)OC)(c3cc4c(cc3OC)N(C=O)[C@H]3[C@@](O)(C(=O)OC)[C@H](OC(C)=O)[C@]5(CC)C=CCN6CC[C@]43[C@@H]65)C2)C1: active

Query: Record request — test call for COc1ccccc1N1CCN(CC(O)COc2cccc3ccccc23)CC1 (stereo not given)
Reply: inactive

====

Tested on: Tov-21-G
Experiment: Confirmatory qHTS for gynecologic anti-cancer compounds from libraries of approved drugs and bioactive compounds; further: nearly all actives have a fitted effect of over 55% in size
Conditions: gynecologic cancer cell panel viability, ATPlite luminescence, 48 h; series mostly up to 57.7 µM
Results filed as inconclusive are left out. Active and inactive are the calls of the source. Calls come from the whole dose curve; as a rule, active = well fitted cell-killing curve with a large enough effect; inconclusive = small, poorly fitted or top-dose-only effect, or effect the other way; inactive = no such curve, though single readings can be large or run the other way.
Response enum: active, inactive

Examples with answers:
CNC(=O)c1nn(C)c2c1C(C)(C)Cc1cnc(Nc3ccc(N4CCN(C)CC4)cc3)nc1-2: active
COc1cc(Nc2c(C#N)cnc3cc(OCCCN4CCN(C)CC4)c(OC)cc23)c(Cl)cc1Cl: active
Cc1ccn(-c2ccc(-c3ncco3)cc2)c(=O)c1-c1ccc2nc(N)ncc2c1: active
O=C1c2c(O)ccc(O)c2C(=O)c2c(NCCNCCO)ccc(NCCNCCO)c21: active
Nc1ccc(C(=O)Nc2cccc(-c3nc(N4CCOCC4)c4oc5ncccc5c4n3)c2)cn1: active
Cc1cnc(Nc2cccc(CN3CCOCC3)c2)nc1Nc1cccc(S(=O)(=O)NC(C)(C)C)c1: active
CN[C@@H](C)C(=O)N[C@H]1CN(C(=O)CC(C)C)CC[C@H]2CC[C@@H](C(=O)NC(c3ccccc3)c3ccccc3)N2C1=O: active
CN(NC(=O)CC(=O)NN(C)C(=S)c1ccccc1)C(=S)c1ccccc1: active

Now for a further molecule.
Query: Record request — test call for "Cc1cncc2cccc(S(=O)(=O)N3CCCN(C(=O)CN)C[C@@H]3C)c12"
Reply: inactive

====

Test system: Tov-21-G
Assay: Confirmatory qHTS for gynecologic anti-cancer compounds from libraries of approved drugs and bioactive compounds; further: nearly all actives have a fitted effect of over 55% in size
Conditions: gynecologic cancer cell panel viability, ATPlite luminescence, 48 h; series mostly up to 57.7 µM
Results filed as inconclusive are left out. Calls of active or inactive are those of the source. Calls come from the whole dose curve; as a rule, active = well fitted cell-killing curve with a large enough effect; inconclusive = small, poorly fitted or top-dose-only effect, or effect the other way; inactive = no such curve, though single readings can be large or run the other way.
Response enum: active, inactive

Examples with answers:
CN1CCN(CCOc2cc(OC3CCOCC3)c3c(Nc4c(Cl)ccc5c4OCO5)ncnc3c2)CC1: active
O=C(c1ccc(F)c(F)c1Nc1ccc(I)cc1F)N1CC(O)([C@@H]2CCCCN2)C1: active
COc1cccc2c1C(=O)c1c(O)c3c(c(O)c1C2=O)C[C@@](O)(C(=O)CO)C[C@@H]3O[C@H]1C[C@H](N)[C@H](O[C@@H]2CCCCO2)[C@H](C)O1: active

Query: Record request — test call for "CCS(=O)(=O)c1cccc(-c2cc(C(=O)NC3CCN(C)CC3)c(C)c3[nH]c4ncc(C)cc4c23)c1"
Reply: active

Query: Query COc1cc(F)c(F)c(Nc2ccc(I)cc2F)c1NS(=O)(=O)C1(CC(O)CO)CC1 (configuration not stated) next
Reply: active

Query: Query "CCc1c2c(nc3ccc(OC(=O)N4CCC(N5CCCCC5)CC4)cc13)-c1cc3c(c(=O)n1C2)COC(=O)[C@]3(O)CC" next
Reply: active
